Where these numbers come from: PubChem BioAssay (NCATS)

Assay: qHTS of Nrf2 Activators: LOPAC Validation (AID 624149)
Settings: Nrf2/ARE reporter cell assay; series mostly up to 46.1 µM
Activity calls are given as the source filed them. The call rests on the fitted dose curve; in most records, active means well fitted curve in the direction sought with a large enough effect; inconclusive means small, poorly fitted or top-dose-only effect, or effect the other way, or another doubt; inactive means no such curve, though single readings can be large or run the other way.
measurement.type: outcome

Below, 4 compounds whose answers are already recorded.
CC[N+](CC)(CC)CC inactive
O=Nc1c(-c2c(O)[nH]c3ccccc23)[nH]c2ccccc12 inactive
CCc1ccc(/C=C2/SC(=S)NC2=O)cc1 inactive
C1CCC(N=C(NC23CC4CC(CC(C4)C2)C3)N2CCOCC2)CC1 inactive

Let me know recorded outcome for O=C1c2ccccc2C(=O)c2c(NCCc3ccc(O)cc3)ccc(NCCc3ccc(O)cc3)c21 , thanks.
inactive

Let me know recorded outcome for N#C/C(=C\c1ccc(O)c(O)c1)C(=O)Nc1ccccc1 , thanks.
inactive
